measurement target: MMP-13 (Homo sapiens)
Construct: a fragment of 767 bp encoding original 84 amino acids of complete MMP-13 and encoding 164 amino acids
test protocol: Test 2 Test on MMP-13 inhibition activity (fluorogenic peptide substrate)
condition parameters: activated MMP-13, 37° C.
Parameter IC50: see the listing below.
Answer with the figure and its unit, nothing else.

Recorded results for 4 compounds are shown here.
compound | parameter measured | val
CCOC(=O)CCN(C1(C(=O)NO)CCCC1)S(=O)(=O)c1ccc(Oc2ccc(S(C)(=O)=O)cc2)cc1 [Example 26] | IC50 | 1.9 nM
CS(=O)(=O)c1ccc(Oc2ccc(S(=O)(=O)N(CCC(=O)O)CC(=O)NO)cc2)cc1 [Example 36] | IC50 | 3.81 nM
CCOC(=O)CN(C1(C(=O)NO)CCC1)S(=O)(=O)c1ccc(Oc2ccc(S(C)(=O)=O)cc2)cc1 [Example 46] | IC50 | 10.5 nM
COCCN(CC(=O)NO)S(=O)(=O)c1ccc(Oc2ccc(S(C)(=O)=O)cc2)cc1 [Example 44] | IC50 | 0.5 nM

Quick one: give measured IC50 for CC(C)CN(C1(C(=O)NO)CCOCC1)S(=O)(=O)c1ccc(Oc2ccc(S(C)(=O)=O)cc2)cc1 [Example 15]
24.6 nM

Item CS(=O)(=O)c1ccc(Oc2ccc(S(=O)(=O)N(CC(=O)O)CC(=O)NO)cc2)cc1 [Example 24] : provide IC50
16.3 nM

---

measurement target: MMP-14 (MT1-MMP) (Homo sapiens, UniProt P50281)
Construct: purchased Biogenesis, supplied by Cosmobio (Nakarai Tesku)
test protocol: Test 5 MMP-14 (MT1-MMP) inhibiting activity test
Assay type: biochemical
condition parameters: human recombinant MT1-MMP, 37° C.; read-out: MMP-14 inhibition activity value
pIC50: −log10 of the molar value.
Recorded pIC50, one value per entry.

compound | val
CC(C)(C(=O)NO)N(Cc1ccccc1)S(=O)(=O)c1ccc(Oc2ccc(S(C)(=O)=O)cc2)cc1 | < 5.30

Provide one value: measured pIC50 of CCOC(=O)CCN(C1(C(=O)NO)CCOCC1)S(=O)(=O)c1ccc(Oc2ccc(S(C)(=O)=O)cc2)cc1
< 5.30

Output measured pIC50 for this item: CCOCCN(C1(C(=O)NO)CCCC1)S(=O)(=O)c1ccc(Oc2ccc(S(C)(=O)=O)cc2)cc1
< 5.82

Return the recorded pIC50 value; entry: CCOC(=O)CN(C1(C(=O)NO)CCC1)S(=O)(=O)c1ccc(Oc2ccc(S(C)(=O)=O)cc2)cc1
< 5.82

---

measurement target: MMP-13 (Homo sapiens)
Construct: a fragment of 767 bp encoding original 84 amino acids of complete MMP-13 and encoding 164 amino acids; made in house; host or cells: E. coli BL21 (DE3), pET11a
test protocol: Test 2 Test on MMP-13 inhibition activity (fluorogenic peptide substrate)
Type: biochemical
condition parameters: activated MMP-13, 37° C.
parameter measured: log10 of IC50 (log10 of the value in nM)
Units before log transform: nM; reported quantity: IC50; transform: log10.

Consider the reported log10 of IC50 for these compounds:
compound | log10 of IC50
CS(=O)(=O)c1ccc(Oc2ccc(CC3Sc4ccc(C(=O)O)cc4N(CC(=O)NO)C3=O)cc2)cc1 (stereo not drawn) | 0.48
CS(=O)(=O)c1ccc(Oc2ccc(S(=O)(=O)N(Cc3ccccc3)C3(C(=O)NO)CCOCC3)cc2)cc1 | 0.60
CC(C)CN(CC(=O)NO)S(=O)(=O)c1ccc(Oc2ccc(S(C)(=O)=O)cc2)cc1 | 0.11
CC(C)(C(=O)NO)N(Cc1ccccc1)S(=O)(=O)c1ccc(Oc2ccc(S(C)(=O)=O)cc2)cc1 | 1.54
CS(=O)(=O)c1ccc(Oc2ccc(S(=O)(=O)N(CC(=O)NO)Cc3ccncc3)cc2)cc1 | 0.60

Query compound follows.
Provide only the value of recorded log10 of IC50 for CS(=O)(=O)c1ccc(Oc2ccc(S(=O)(=O)N(CCC(=O)O)C3(C(=O)NO)CCCC3)cc2)cc1
1.33
